Target: phosphor-EGFR in H1975(L585R/T790M) mutant EGFR expressing cells (Homo sapiens, UniProt P00533, L858R/T790M)
Sequence (P00533 25-1210 T790M/L858R): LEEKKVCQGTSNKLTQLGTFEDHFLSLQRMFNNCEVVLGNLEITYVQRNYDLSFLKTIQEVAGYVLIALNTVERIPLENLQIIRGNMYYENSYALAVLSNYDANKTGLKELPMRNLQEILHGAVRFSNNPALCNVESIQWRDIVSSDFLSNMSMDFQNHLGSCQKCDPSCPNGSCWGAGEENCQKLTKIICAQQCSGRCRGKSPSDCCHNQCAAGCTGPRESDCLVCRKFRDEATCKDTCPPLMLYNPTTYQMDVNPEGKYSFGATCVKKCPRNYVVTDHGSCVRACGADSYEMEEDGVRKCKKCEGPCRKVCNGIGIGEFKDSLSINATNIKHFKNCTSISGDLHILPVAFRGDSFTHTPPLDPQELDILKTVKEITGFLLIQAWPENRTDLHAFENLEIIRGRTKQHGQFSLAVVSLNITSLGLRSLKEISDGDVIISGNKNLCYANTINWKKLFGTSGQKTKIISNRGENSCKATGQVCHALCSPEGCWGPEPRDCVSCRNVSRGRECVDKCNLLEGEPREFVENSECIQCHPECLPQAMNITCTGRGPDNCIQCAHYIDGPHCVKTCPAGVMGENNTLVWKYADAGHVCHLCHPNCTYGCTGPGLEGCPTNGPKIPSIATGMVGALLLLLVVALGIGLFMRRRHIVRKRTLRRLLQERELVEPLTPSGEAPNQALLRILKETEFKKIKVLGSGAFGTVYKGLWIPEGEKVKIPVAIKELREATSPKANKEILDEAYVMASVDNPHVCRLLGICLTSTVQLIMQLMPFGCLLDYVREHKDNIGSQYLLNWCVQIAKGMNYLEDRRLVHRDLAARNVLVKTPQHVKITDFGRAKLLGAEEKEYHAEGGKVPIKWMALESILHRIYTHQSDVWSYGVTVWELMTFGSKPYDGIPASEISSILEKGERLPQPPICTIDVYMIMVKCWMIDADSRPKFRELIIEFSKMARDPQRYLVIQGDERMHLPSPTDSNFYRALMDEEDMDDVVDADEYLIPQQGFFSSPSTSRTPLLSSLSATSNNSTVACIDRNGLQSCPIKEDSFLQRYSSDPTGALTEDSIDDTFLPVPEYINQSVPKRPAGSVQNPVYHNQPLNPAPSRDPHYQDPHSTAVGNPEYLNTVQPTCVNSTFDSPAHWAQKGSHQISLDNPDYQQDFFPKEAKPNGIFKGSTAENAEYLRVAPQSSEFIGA
Test: H1975 pEGFR MSD cellular assay
Conditions: NCI-H1975 cells, serum starved, 1 hour compound incubation, pEGFR Tyr1068 MSD; read-out: HI975 pEGFR EC50
pEC50: −log10 of the molar value.
assay.endpoint: pEC50

For orientation, consider the following solved cases.
CC(C)n1nc(N2CCC(C)(O)C2)c2cnc(Nc3ccnc(N4CC[C@@H](O)[C@@H](F)C4)n3)cc21 (relative stereo) [Example 104] | 7.15
CCC(C)n1nc(N2CC(C(C)(C)O)C2)c2cnc(Nc3ccnc(N4CCC(O)C(C)(C)C4)n3)cc21 (mixture of isomers) [Example 12] | 7.52

[I] CC(C)n1nc(N2CCCC2)c2cnc(Nc3ccnc(N4CCC(O)C(C)(C)C4)n3)cc21 (stereo not shown) [Example 8]
[II] CC(C)n1nc(N2CC(C(=O)N(C)C)C2)c2cnc(Nc3ccnc(-c4cnn(S(=O)(=O)C5CC5)c4)n3)cc21 [Example 57]
[III] CCC(C)n1nc(N2CCS(=N)(=O)CC2)c2cnc(Nc3ccnc(N4CCC(C)(O)CC4)n3)cc21 (stereo not shown) [Example 89]
[IV] CC(C)n1nc(N2CC(C#N)CC2=O)c2cnc(Nc3ccnc(N4CCC(C)(O)CC4)n3)cc21 (stereo not shown) [Example 137]
[V] CC(C)n1nc(N2CC3(COC3)C2)c2cnc(Nc3ccnc(-c4cnn(CC5CC5)c4)n3)cc21 [Example 4]
Q: Hello, I need these entries ordered by pEC50, highest reading first. Thanks! Rank the items, then write their labels in that order.
Ans: II, I, V, IV, III
(II: 7.74, I: 7.52, V: 6.66, IV: 6.15, III: 5.28)
